TEST_TARGET: BRD1 (Homo sapiens, UniProt O95696)
Sequence (O95696 562-666 limits assumed): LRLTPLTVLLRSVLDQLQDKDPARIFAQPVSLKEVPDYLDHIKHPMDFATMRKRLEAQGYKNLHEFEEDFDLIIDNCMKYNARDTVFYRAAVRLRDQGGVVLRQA
TEST_SUMMARY: BROMOscan ligand-binding assay
ASSAY_CONDITIONS: BROMOscan, BRD1
REPORTED_ENDPOINT: Kd

Look up Kd for this molecule: O=C(C=CN1[C@H]2CC[C@@H]1c1ncnc(NC3CC3)c1C2)c1ccccc1O [PFI-3 D1] > 30 µM

====

TEST_TARGET: UniProtKB O60885
TEST_SUMMARY: BROMOscan ligand-binding assay
ASSAY_CONDITIONS: read-out: KD (BROMOscan); sheet prints no unit (nM)
REPORTED_ENDPOINT: Kd (nM)
Expressed in nM, but write only the number.

Look up Kd for this compound: COc1cc(C#N)ccc1S(=O)(=O)Nc1ccc2c(c1)cc(C)c(=O)n2C 15000

====

TEST_TARGET: SMARCA2 (Homo sapiens)
Sequence (P51531 1-1572 isoform P51531-2): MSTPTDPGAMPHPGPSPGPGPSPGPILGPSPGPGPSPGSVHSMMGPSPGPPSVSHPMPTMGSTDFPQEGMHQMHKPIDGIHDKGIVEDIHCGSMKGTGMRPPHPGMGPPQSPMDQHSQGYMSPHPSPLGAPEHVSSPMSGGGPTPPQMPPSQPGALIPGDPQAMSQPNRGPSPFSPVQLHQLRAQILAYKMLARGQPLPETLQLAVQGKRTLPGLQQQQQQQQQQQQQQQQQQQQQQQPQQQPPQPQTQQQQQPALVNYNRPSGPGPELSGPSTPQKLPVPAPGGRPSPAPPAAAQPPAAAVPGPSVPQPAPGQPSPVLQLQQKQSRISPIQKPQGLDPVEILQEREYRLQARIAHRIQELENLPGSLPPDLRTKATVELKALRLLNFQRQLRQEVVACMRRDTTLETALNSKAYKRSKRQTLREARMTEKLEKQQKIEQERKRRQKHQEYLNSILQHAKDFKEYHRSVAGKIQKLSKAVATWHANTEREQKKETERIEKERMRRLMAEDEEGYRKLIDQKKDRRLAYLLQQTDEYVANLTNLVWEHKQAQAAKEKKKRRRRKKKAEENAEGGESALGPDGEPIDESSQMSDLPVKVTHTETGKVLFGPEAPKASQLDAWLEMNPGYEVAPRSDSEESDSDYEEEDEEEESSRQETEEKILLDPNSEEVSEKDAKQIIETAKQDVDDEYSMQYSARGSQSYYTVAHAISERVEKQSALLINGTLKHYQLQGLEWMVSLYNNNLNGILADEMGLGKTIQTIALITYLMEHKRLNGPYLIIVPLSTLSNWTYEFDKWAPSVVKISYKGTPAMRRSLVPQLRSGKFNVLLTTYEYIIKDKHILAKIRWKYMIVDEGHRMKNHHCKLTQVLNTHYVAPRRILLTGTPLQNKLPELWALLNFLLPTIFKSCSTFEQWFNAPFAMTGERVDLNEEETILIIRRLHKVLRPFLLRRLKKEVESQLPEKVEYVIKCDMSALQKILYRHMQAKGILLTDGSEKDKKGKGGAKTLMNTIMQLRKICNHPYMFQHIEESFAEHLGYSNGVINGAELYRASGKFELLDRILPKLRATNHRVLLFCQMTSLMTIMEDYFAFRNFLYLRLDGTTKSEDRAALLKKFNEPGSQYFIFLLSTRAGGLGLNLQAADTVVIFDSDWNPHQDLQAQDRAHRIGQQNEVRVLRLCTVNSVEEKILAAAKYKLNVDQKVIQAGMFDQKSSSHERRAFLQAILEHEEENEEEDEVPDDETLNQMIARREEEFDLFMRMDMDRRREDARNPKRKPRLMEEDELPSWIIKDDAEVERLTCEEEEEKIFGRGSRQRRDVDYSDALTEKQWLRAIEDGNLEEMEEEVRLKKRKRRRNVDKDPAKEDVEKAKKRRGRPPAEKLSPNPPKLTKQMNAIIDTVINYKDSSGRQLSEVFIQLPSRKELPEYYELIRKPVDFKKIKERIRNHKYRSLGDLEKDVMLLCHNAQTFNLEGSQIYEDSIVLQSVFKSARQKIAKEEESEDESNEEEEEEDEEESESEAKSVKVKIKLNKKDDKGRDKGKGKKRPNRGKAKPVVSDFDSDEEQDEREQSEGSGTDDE
TEST_SUMMARY: BROMOscan ligand-binding assay
ASSAY_CONDITIONS: KD, BROMOscan Gene Symbol SMARCA2
REPORTED_ENDPOINT: pKd
pKd here is simply -log10 of the concentration when that concentration is written in mol/L.

Item CCOC(=O)Nc1cc(-c2ccc(C)c(NS(C)(=O)=O)c2)nn2c(C)nnc12 with SMARCA2 (Homo sapiens) - pKd? 5.34

====

activity at 10 µM: recorded values
TEST_TARGET: MYST3 (Homo sapiens)
Sequence (Q92794 whole entry, species assumed): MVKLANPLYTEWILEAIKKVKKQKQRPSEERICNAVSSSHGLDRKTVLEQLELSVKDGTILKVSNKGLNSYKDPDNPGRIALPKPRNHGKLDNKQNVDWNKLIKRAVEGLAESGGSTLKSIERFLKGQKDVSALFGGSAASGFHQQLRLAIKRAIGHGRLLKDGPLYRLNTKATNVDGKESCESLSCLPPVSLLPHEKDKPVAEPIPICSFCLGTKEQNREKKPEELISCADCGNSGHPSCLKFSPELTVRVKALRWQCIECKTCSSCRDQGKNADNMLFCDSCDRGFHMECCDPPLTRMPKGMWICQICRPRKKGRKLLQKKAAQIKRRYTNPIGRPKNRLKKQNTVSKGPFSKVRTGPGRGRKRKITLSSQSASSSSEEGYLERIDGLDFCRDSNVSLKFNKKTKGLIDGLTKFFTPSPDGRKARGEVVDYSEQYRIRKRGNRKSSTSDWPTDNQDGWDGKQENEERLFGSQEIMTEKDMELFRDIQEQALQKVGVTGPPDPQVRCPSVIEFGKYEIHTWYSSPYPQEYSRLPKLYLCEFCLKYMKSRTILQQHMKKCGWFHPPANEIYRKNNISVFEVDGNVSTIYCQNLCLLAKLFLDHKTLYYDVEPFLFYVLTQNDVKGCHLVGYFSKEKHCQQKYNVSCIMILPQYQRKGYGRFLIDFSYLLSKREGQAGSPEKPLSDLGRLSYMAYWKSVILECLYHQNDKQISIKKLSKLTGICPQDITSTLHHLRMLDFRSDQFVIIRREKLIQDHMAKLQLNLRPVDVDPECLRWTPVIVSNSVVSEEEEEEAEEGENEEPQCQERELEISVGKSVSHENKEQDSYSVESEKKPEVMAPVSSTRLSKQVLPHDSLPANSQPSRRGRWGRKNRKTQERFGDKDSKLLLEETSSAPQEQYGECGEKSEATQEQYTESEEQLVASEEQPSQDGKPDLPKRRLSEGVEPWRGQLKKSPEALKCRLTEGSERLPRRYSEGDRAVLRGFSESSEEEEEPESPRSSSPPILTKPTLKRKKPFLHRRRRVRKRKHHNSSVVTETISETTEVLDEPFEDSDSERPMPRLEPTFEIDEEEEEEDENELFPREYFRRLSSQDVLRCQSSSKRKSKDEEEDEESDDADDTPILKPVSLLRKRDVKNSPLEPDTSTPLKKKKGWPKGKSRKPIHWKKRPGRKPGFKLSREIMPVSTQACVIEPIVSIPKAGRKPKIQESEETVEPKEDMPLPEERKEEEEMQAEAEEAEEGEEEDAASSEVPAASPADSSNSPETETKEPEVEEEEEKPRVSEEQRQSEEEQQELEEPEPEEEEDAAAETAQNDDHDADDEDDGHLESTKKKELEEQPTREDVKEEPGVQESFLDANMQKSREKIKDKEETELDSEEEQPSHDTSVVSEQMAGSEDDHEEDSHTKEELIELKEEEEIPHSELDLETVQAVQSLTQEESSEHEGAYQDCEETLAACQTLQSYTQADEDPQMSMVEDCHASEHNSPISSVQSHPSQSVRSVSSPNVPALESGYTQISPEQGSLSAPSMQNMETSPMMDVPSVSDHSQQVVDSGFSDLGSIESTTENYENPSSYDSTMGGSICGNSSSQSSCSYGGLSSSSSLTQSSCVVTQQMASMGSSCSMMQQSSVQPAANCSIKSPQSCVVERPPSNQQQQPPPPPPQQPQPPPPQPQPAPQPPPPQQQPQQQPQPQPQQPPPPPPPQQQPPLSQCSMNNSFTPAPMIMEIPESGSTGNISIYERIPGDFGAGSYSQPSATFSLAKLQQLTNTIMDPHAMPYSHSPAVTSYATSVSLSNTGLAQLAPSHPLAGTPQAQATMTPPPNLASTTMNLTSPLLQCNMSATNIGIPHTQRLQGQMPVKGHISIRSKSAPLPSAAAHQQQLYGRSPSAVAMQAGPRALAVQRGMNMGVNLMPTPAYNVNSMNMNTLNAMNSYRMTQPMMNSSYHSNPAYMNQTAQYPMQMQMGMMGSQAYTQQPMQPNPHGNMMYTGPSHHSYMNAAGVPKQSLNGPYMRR
TEST_SUMMARY: Histone acetyltransferase (HAT) activity assay;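 further: selectivity screen of bromodomain probe compounds across a panel of histone acetyltransferases, read out as enzyme activity in %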
Type: biochemical
ASSAY_CONDITIONS: 10µM; read-out: HATs Activity (%)
Expressed in %, but write only the number.

The following compounds have reported results that may help.
* COc1cc(Cl)c(C(=O)N[C@@H](CN[C@H]2CC[C@@H](N)CC2)Cc2ccc(C#N)cc2)cc1-c1ccc(CN[C@H](C)c2ccc(C)cc2)o1 | 97
* O=C(C=CN1CC2CC1CN2c1ccccn1)c1ccccc1O (centres unmarked) | 96
* Cc1nnc2c3ccccc3c(N[C@@H](C)[C@H](c3ccccc3)N(C)C)nn12 | 90
* CO[C@H]1CNC[C@@H](OCC2CCC(F)(F)CC2)[C@@H]1Nc1ncc(-c2cncc(C)c2)c2cc(C)c(=O)[nH]c12 | 102
* Cc1c(NC(=O)c2cc(C(N)=O)nc3cc(F)ccc23)c(C(F)(F)F)nn1Cc1ccc(C(C)(C)C)cc1 | 96

Look up activity at 10 µM for this compound: COc1ccc(CCc2nc3cc(-c4c(C)noc4C)ccc3n2C[C@H](C)N2CCOCC2)cc1Cl 103

Please answer likewise for CN(C)CCCOc1ccc(-c2cc(NCCCn3cccn3)nc(S(C)(=O)=O)n2)cc1 99

Please answer likewise for Cc1cc2c(cc1N1C(=O)c3cccc4c(CCCO)ccc(c34)C1=O)n(C)c(=O)n2C 85

====

TEST_TARGET: NSD2 (Homo sapiens)
Construct: purchased DiscoverX BROMOscan (bromodomains); SGC in-house methyltransferase panel
Sequence (O96028 whole entry): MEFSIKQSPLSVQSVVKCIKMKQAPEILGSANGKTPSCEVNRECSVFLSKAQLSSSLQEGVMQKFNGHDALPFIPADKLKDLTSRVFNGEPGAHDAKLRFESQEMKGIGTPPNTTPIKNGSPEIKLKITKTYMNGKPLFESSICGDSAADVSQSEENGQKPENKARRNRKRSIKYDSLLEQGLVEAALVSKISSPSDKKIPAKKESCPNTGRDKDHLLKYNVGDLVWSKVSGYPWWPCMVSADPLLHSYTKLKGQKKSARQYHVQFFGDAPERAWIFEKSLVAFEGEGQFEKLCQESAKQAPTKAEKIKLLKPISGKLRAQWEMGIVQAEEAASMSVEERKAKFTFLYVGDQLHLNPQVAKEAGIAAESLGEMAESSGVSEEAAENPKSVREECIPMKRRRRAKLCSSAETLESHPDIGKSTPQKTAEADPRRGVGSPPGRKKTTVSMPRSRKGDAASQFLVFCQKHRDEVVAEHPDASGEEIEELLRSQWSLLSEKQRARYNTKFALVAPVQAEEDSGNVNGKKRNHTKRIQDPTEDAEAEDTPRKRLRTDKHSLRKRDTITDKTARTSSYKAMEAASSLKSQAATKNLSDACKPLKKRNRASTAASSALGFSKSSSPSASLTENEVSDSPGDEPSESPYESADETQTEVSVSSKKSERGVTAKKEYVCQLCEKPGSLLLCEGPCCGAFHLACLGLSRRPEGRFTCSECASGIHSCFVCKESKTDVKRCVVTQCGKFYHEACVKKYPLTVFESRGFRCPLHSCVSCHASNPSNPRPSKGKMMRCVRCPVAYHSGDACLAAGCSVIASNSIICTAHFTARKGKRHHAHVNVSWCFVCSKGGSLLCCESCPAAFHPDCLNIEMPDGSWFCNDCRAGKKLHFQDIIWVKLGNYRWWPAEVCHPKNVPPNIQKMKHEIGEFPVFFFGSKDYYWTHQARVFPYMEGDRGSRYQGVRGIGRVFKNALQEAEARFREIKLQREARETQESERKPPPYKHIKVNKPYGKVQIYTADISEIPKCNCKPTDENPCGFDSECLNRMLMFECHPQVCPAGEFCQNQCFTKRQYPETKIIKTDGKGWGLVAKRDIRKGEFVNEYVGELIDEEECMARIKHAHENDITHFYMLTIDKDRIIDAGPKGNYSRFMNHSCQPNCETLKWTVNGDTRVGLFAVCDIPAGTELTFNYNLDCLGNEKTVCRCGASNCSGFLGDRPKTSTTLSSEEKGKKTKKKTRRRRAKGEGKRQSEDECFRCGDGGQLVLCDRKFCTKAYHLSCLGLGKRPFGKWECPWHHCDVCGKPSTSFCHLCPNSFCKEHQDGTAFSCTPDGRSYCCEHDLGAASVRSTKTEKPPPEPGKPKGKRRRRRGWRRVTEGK
TEST_SUMMARY: Methyl transferase scintillation proximity assay
Format: biochemical
ASSAY_CONDITIONS: average of two measurements, read-out: MTases Inhibition (%)
REPORTED_ENDPOINT: inhibition at 10 µM

The following compounds have reported results that may help.
- CO[C@H]1CNC[C@@H](OCC2CCC(F)(F)CC2)[C@@H]1Nc1ncc(-c2cncc(C)c2)c2cc(C)c(=O)[nH]c12: 24%
- Cc1c(NC(=O)c2cc(C(N)=O)nc3cc(F)ccc23)c(C(F)(F)F)nn1Cc1ccc(C(C)(C)C)cc1: 2%
- CN1C[C@H](Nc2cnn(C)c(=O)c2Br)C[C@H](c2ccccc2)C1: 15%

Attention now shifts to the item below.
Look up inhibition at 10 µM for this compound: Cc1nnc2c3ccccc3c(N[C@@H](C)[C@H](c3ccccc3)N(C)C)nn12 2%

Cited source for all entries: paper PMC6478789
